- Measurement Protocol: Pharmacokinetic analysis after single oral dose
- Type: in vivo, mouse
- Condition: male, CD-1, mouse, plasma, po, 200 mg kg^−1, 2 h after 200 mg kg^−1 PO; one value per mouse
Recorded Endpoint: concentration at 2 h
For clarity, give the value followed by its unit.

Noted for Nc1nc(N)c2c(ccc3c2ccn3Cc2ccnc(F)c2)n1 : its concentration at 2 h reads 3640 ng/mL

---

- Measurement Protocol: Serum (plasma protein) binding
- Format: in vitro ADME
- Condition: mouse plasma, 1 μM, 6 h, dialysis; read-out: % Bound (converted)
Recorded Endpoint: fraction unbound at 6 h, 1 μM
Give bare numbers.

Noted for Nc1nc(N)c2c(ccc3c2ccn3Cc2ccnc(F)c2)n1 : its fraction unbound at 6 h, 1 μM reads 0.283

---

- Measurement Protocol: Pharmacokinetic analysis after single oral dose
- Type: in vivo, mouse
- Condition: male, mouse, plasma; CD-1 mice, 200 mg/kg PO, mean of three mice; read-out: MRT_Inf_obs
Recorded Endpoint: MRT inf (h)
Give bare numbers, in h.

Noted for Nc1nc(N)c2c(ccc3c2ccn3Cc2ccnc(F)c2)n1 [fluorofolin] : its MRT inf reads 18.2

---

- Target Or Test System: E. coli DHFR (FolA) (Escherichia coli, UniProt P0ABQ4)
- Sequence (P0ABQ4 whole entry): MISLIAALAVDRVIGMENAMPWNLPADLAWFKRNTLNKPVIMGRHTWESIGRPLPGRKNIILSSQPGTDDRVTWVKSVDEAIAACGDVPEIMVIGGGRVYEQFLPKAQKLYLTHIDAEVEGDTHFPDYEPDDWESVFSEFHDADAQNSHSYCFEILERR
Recorded Endpoint: IC50 (nM)
Numbers only, in nM.

Noted for Nc1nc(N)c2c(ccc3c2ccn3Cc2ccnc(F)c2)n1 : its IC50 reads 2.5

---

- Measurement Protocol: Pharmacokinetic analysis after single oral dose
- Type: in vivo, mouse
- Condition: male, mouse, plasma; CD-1 mice, 200 mg/kg PO, mean of three mice
Recorded Endpoint: AUC(0-inf) (ng·h/mL)
One number for each entry, in ng·h/mL.

Noted for Nc1nc(N)c2c(ccc3c2ccn3Cc2ccnc(F)c2)n1 [fluorofolin] : its AUC(0-inf) reads 68800

---

- Measurement Protocol: Pharmacokinetic analysis after single oral dose
- Format: in vivo, mouse
- Condition: male, mouse, plasma; CD-1 mice, 200 mg/kg PO, mean of three mice
Recorded Endpoint: AUC(0-t) (ng·h/mL)
One number for each entry, in ng·h/mL.

Noted for Nc1nc(N)c2c(ccc3c2ccn3Cc2ccnc(F)c2)n1 [fluorofolin] : its AUC(0-t) reads 46300

---

- Measurement Protocol: Pharmacokinetic analysis after single oral dose
- Type: in vivo, mouse
- Condition: male, CD-1, mouse, plasma, po, 200 mg kg^−1, 8 h after 200 mg kg^−1 PO; one value per mouse
Recorded Endpoint: concentration at 8 h (µg/mL)
Give bare numbers, in µg/mL.

Noted for Nc1nc(N)c2c(ccc3c2ccn3Cc2ccnc(F)c2)n1 [fluorofolin] : its concentration at 8 h reads 1.64

---

Exercise: state measured hemolysis at 1 h, 50 ug/mL for each of the compounds provided.
- Measurement Protocol: Haemolysis
- Assay type: cell-based, sheep
- Condition: sheep, defibrinated sheep red blood cells; 50 ug/mL; 1 h; vs Triton X-100 100% lysis
Numbers only, in %.

Nc1nc(N)c2c(ccc3c2ccn3Cc2ccnc(F)c2)n1 ... 13.7

Noted for COc1cc(Cc2cnc(N)nc2N)cc(OC)c1OC [Trimethoprim, trimethoprim, reference compound] : its hemolysis at 1 h, 50 ug/mL reads 4.08

---

- Measurement Protocol: Pharmacokinetic analysis after single oral dose
- Assay type: in vivo, mouse
- Condition: male, CD-1, mouse, plasma, po, 200 mg/kg, CD-1 mice, 200 mg/kg PO, mean of three mice
Recorded Endpoint: half-life (h)
Give bare numbers, in h.

Noted for Nc1nc(N)c2c(ccc3c2ccn3Cc2ccnc(F)c2)n1 : its half-life reads 12.1

---

Target protein (sequence): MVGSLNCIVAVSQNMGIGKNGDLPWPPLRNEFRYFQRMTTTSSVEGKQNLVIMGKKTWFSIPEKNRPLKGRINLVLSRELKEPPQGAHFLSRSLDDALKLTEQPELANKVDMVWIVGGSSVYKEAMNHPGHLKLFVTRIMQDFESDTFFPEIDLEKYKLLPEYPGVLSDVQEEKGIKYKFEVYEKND
Recorded Endpoint: IC50 (nM)
Give bare numbers, in nM.

Noted for Nc1nc(N)c2c(ccc3c2ccn3Cc2ccnc(F)c2)n1 [fluorofolin] : its IC50 reads 14

---

- Measurement Protocol: Pharmacokinetic analysis after single oral dose
- Assay type: in vivo, mouse
- Condition: male, CD-1, mouse, plasma, po, 200 mg kg^−1, 0.083 h after 200 mg kg^−1 PO; one value per mouse
- Method: For pharmacokinetics determination, care and handling of male CD-1 mice approximately 6–8 weeks old conformed to institutional animal care and use policies as carried out at Pharmaron. Pharmacokinetic properties were determined after a single dose of 200 mg kg^−1 fluorofolin given orally (PO). Plasma samples were taken from three mice at times 0.083, 0.25, 0.5, 1, 2, 4, 8 and 24 h, and quantitative analysis was performed using LC–MS/MS. […]
Recorded Endpoint: concentration at 0.083 h (ng/mL)
One number for each entry, in ng/mL.

Noted for Nc1nc(N)c2c(ccc3c2ccn3Cc2ccnc(F)c2)n1 : its concentration at 0.083 h reads 880

---

- Measurement Protocol: Haemolysis
- Format: cell-based, sheep
- Condition: sheep, defibrinated sheep red blood cells; 3.125 ug/mL; 1 h; vs Triton X-100 100% lysis
Exercise: state measured hemolysis at 1 h, 3.125 ug/mL for each of the compounds provided.
For clarity, give the value followed by its unit.

Nc1nc(N)c2c(ccc3c2ccn3Cc2ccnc(F)c2)n1 [fluorofolin] ... -0.334%

Noted for COc1cc(Cc2cnc(N)nc2N)cc(OC)c1OC [Trimethoprim, trimethoprim, reference compound] : its hemolysis at 1 h, 3.125 ug/mL reads 0.0766%

---

- Measurement Protocol: Pharmacokinetic analysis after single oral dose
- Format: in vivo, mouse
- Condition: male, mouse, plasma; CD-1 mice, 200 mg/kg PO, mean of three mice
Recorded Endpoint: Cmax (ng/mL)
Give bare numbers, in ng/mL.

Noted for Nc1nc(N)c2c(ccc3c2ccn3Cc2ccnc(F)c2)n1 : its Cmax reads 3950

---

- Measurement Protocol: Haemolysis
- Assay type: cell-based, sheep
- Condition: sheep, defibrinated sheep red blood cells; 0.78125 ug/mL; 1 h; vs Triton X-100 100% lysis
Exercise: state measured hemolysis at 1 h, 0.78125 ug/mL for each of the molecules provided.
Give bare numbers, in %.

Nc1nc(N)c2c(ccc3c2ccn3Cc2ccnc(F)c2)n1 ... 0.966

Noted for COc1cc(Cc2cnc(N)nc2N)cc(OC)c1OC [Trimethoprim, trimethoprim, reference compound] : its hemolysis at 1 h, 0.78125 ug/mL reads 0.423

---

- Measurement Protocol: Serum (plasma protein) binding
- Format: in vitro ADME
- Condition: mouse, 1 μM, 6 h, dialysis
Recorded Endpoint: recovery at 6 h, 1 μM (%)
Answers are plain numbers, in %.

Noted for Nc1nc(N)c2c(ccc3c2ccn3Cc2ccnc(F)c2)n1 [fluorofolin] : its recovery at 6 h, 1 μM reads 91.9

---

Exercise: state measured hemolysis at 1 h, 12.5 ug/mL for each of the compounds provided.
- Measurement Protocol: Haemolysis
- Type: cell-based, sheep
- Condition: sheep, defibrinated sheep red blood cells; 12.5 ug/mL; 1 h; vs Triton X-100 100% lysis
- Procedure: Samples were treated at 37 °C with shaking for 1 h and then centrifuged. Supernatants were collected and absorbances were measured at 405 nm in a Tecan InfiniteM200 Pro microplate reader.
Numbers only, in %.

Nc1nc(N)c2c(ccc3c2ccn3Cc2ccnc(F)c2)n1 [fluorofolin] ... -0.799

Noted for COc1cc(Cc2cnc(N)nc2N)cc(OC)c1OC [Trimethoprim, trimethoprim, reference compound] : its hemolysis at 1 h, 12.5 ug/mL reads 0.258
